- SYSTEM TESTED: NCK2 3|1|2 full-length recombinant protein (SH3-shuffled, tag-free) (mouse, UniProt O55033 198-256; O55033 60-113; O55033 2-59; O55033 171-197; O55033 114-170; …)
- Sequence (O55033 other isoform, or with tags, fused parts or gaps): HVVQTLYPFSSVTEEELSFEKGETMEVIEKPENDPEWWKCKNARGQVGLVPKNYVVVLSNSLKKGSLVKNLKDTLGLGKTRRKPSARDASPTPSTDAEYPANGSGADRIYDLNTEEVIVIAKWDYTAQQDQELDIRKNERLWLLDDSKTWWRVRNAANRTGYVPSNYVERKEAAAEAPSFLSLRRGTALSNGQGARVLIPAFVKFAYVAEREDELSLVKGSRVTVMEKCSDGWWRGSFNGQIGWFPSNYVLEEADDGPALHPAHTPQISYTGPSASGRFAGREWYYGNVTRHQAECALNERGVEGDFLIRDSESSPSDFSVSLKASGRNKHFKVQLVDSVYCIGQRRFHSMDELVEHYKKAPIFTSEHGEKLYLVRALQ
- PROTOCOL DESCRIPTION: FP
pKd: −log10 of the molar value. No end group written: not given here.
OBSERVATION TYPE: pKd

1. RGQNKERPPPVPNPDY (also: fluorescein isothiocyanate-conjugated (position not given here)) [Cd3ε peptide (RGQNKERPPPVPNPDY), fluorescein isothiocyanate-conjugated]
2. DIQDKPPAPPMRNTST (also: fluorescein isothiocyanate-conjugated (position not given here)) [PAK1 peptide (DIQDKPPAPPMRNTST), fluorescein isothiocyanate-conjugated]
Q: Sorting by pKd in descending order, would 1 or 2 appear first? When you have decided, please share the label of that item.
A: 1
(1: 4.79, 2: 4.26)
